Parameter: fraction ligated. Scope: all listed entries.
B1: F1*; the commonest letter at each place (parent)
chain: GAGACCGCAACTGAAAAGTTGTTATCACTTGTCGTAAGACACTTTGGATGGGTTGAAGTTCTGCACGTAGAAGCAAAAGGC

# Variants of: B1
# Assay method text: fraction ligated after 30 min (ligated reads / total reads); higher = more ligase activity
# Experimental setup: with F1*sub RNA substrate (template-directed ligation), 42 °C
Would you mind answering with just the numeric figure?

Worked examples follow.
Mutation list: C33G A39G
fraction ligated: 0.836
--
Mutation list: A24G T32C
fraction ligated: 0.369
--
Mutation list: G31T G34C
fraction ligated: 0.771

response.value for C28T A37C (field: fraction ligated) = 0.799

response.value for T32C A57G (field: fraction ligated) = 0.781

response.value for G38A A41C (field: fraction ligated) = 0.782

response.value for G46T (field: fraction ligated) = 0.791

response.value for A36C G38C (field: fraction ligated) = 0.838

response.value for C33T A39G (field: fraction ligated) = 0.833

response.value for T35A G46A (field: fraction ligated) = 0.837

response.value for T35C C42G (field: fraction ligated) = 0.851

response.value for A37C G50T (field: fraction ligated) = 0.787

response.value for T35C G55T (field: fraction ligated) = 0.804
